assay: Volume of distribution in rat; type: ADME, organism-based; details: in vivo
reported.endpoint: Vd (L/kg)
Give bare numbers, in L/kg.

Tell me the measured Vd of "C[C@@H](O[C@H]1CN2C(=O)[C@H]3C[C@@](C)(O)C[C@H]3[C@H]2[C@@H]1c1ccc(F)cc1)c1cc(C(F)(F)F)cc(C(F)(F)F)c1" , please.
4.03

====

biological target: UniProtKB P25103; experiment: Displacement of [125I]substance P from human NK1 receptor expressed in CHO cells in presence of 50% human serum; assay type: cell-based
reported.endpoint: IC50 (nM)
Answers are plain numbers, in nM.

As a guide, the following entries are already answered.
C[C@@H](O[C@H]1CN2C(=O)C3CN(C4=CC(=O)CC4)CC3[C@H]2[C@@H]1c1ccc(F)cc1)c1cc(C(F)(F)F)cc(C(F)(F)F)c1 (stereo in doubt; 18b) [FIRST ELUDED ISOMER] | 1
C[C@@H](O[C@H]1CN2C(=O)[C@H]3C[C@@H](N)C[C@H]3[C@H]2[C@@H]1c1ccc(F)cc1)c1cc(C(F)(F)F)cc(C(F)(F)F)c1 | 1
C[C@@H](O[C@H]1CN2C(=O)[C@H]3C[C@@H](O)C[C@H]3[C@H]2[C@@H]1c1ccc(F)cc1)c1cc(C(F)(F)F)cc(C(F)(F)F)c1 | 0.77
C[C@@H](O[C@H]1CN2C(=O)[C@H]3C[C@H](NCc4ccccc4)C[C@H]3[C@H]2[C@@H]1c1ccc(F)cc1)c1cc(C(F)(F)F)cc(C(F)(F)F)c1 | 1.3
C[C@@H](O[C@H]1CN2C(=O)[C@@H]3C[C@H](NCc4ccccc4)C[C@@H]3[C@H]2[C@@H]1c1ccc(F)cc1)c1cc(C(F)(F)F)cc(C(F)(F)F)c1 | 13
C[C@@H](O[C@H]1CN2C(=O)[C@H]3C[C@@](C)(O)C[C@H]3[C@H]2[C@@H]1c1ccc(F)cc1)c1cc(C(F)(F)F)cc(C(F)(F)F)c1 | 0.7
C[C@@H](O[C@H]1CN2C(=O)[C@H]3C[C@H](N)C[C@H]3[C@H]2[C@@H]1c1ccc(F)cc1)c1cc(C(F)(F)F)cc(C(F)(F)F)c1 | 1
C[C@@H](O[C@H]1CN2C(=O)[C@H]3C[C@](C)(O)C[C@H]3[C@H]2[C@@H]1c1ccc(F)cc1)c1cc(C(F)(F)F)cc(C(F)(F)F)c1 | 1.2
C[C@@H](O[C@H]1CN2C(=O)[C@H]3C[C@@H](NCc4ccccc4)C[C@H]3[C@H]2[C@@H]1c1ccc(F)cc1)c1cc(C(F)(F)F)cc(C(F)(F)F)c1 | 1.8
C[C@@H](O[C@H]1CN2C(=O)C3CNCC3[C@H]2[C@@H]1c1ccc(F)cc1)c1cc(C(F)(F)F)cc(C(F)(F)F)c1 (stereo in doubt; 6b) [FIRST ELUDED ISOMER] | 3.2

Could you now look at the following compound, please?
What measured IC50 is associated with "CC[C@]1(O)C[C@H]2[C@H]3[C@H](c4ccc(F)cc4)[C@@H](O[C@H](C)c4cc(C(F)(F)F)cc(C(F)(F)F)c4)CN3C(=O)[C@H]2C1" on UniProtKB P25103?
1.7

====

experiment: Binding affinity to calcium channel
pIC50: −log10 of the molar value.
Label Fulfilled for high-side pIC50 (at or above 6) and Not fulfilled for low-side pIC50 (below it).

C[C@@H](O[C@H]1CN2C(=O)C3CN(C4=CC(=O)CC4)CC3[C@H]2[C@@H]1c1ccc(F)cc1)c1cc(C(F)(F)F)cc(C(F)(F)F)c1 (single isomer, unassigned) [FIRST ELUDED ISOMER] | Not fulfilled
C[C@@H](O[C@H]1CN2C(=O)C3CNCC3[C@H]2[C@@H]1c1ccc(F)cc1)c1cc(C(F)(F)F)cc(C(F)(F)F)c1 (stereo in doubt; 6b) [FIRST ELUDED ISOMER] | Fulfilled
C[C@@H](O[C@H]1CN2C(=O)[C@H]3C[C@@](C)(O)C[C@H]3[C@H]2[C@@H]1c1ccc(F)cc1)c1cc(C(F)(F)F)cc(C(F)(F)F)c1 | Not fulfilled
C[C@@H](O[C@H]1CN2C(=O)CC(N)[C@H]2[C@@H]1c1ccc(F)cc1)c1cc(C(F)(F)F)cc(C(F)(F)F)c1 (stereo partly specified) | Not fulfilled

Please examine the following record next.
API: above_or_equal(metric=pIC50, cutoff=6) for item C[C@@H](O[C@H]1CN2C(=O)C(N)C[C@H]2[C@@H]1c1ccc(F)cc1)c1cc(C(F)(F)F)cc(C(F)(F)F)c1 (stereo partly specified)
Fulfilled

====

test: Half life in rat; format: ADME, organism-based; conditions: in vivo
reported.endpoint: half-life (h)
Answers are plain numbers, in h.

Tell me the measured half-life of "C[C@@H](O[C@H]1CN2C(=O)[C@H]3C[C@@](C)(O)C[C@H]3[C@H]2[C@@H]1c1ccc(F)cc1)c1cc(C(F)(F)F)cc(C(F)(F)F)c1" , please.
14.6

====

molecular target: UniProtKB P25103; assay: Displacement of [125I]substance P from human NK1 receptor expressed in CHO cells in presence of 50% dog serum; format: cell-based
reported.endpoint: IC50 (nM)
Numbers only, in nM.

Tell me the measured IC50 of "C[C@@H](O[C@H]1CN2C(=O)[C@H]3C[C@@](C)(O)C[C@H]3[C@H]2[C@@H]1c1ccc(F)cc1)c1cc(C(F)(F)F)cc(C(F)(F)F)c1" , please.
1.5

====

test: Metabolic stability in dog microsomes assessed as compound remaining after 60 mins; type: ADME, Canis lupus familiaris, Microsome; settings: read-out: Stability
reported.endpoint: remaining at 1 h (%)
Numbers only, in %.

Tell me the measured remaining at 1 h of "C[C@@H](O[C@H]1CN2C(=O)[C@H]3C[C@@](C)(O)C[C@H]3[C@H]2[C@@H]1c1ccc(F)cc1)c1cc(C(F)(F)F)cc(C(F)(F)F)c1" , please.
90

====

For each of the molecules below, state its IC50.
assay: Binding affinity to calcium channel

C[C@@H](O[C@H]1CN2C(=O)C3CN(C4=CC(=O)CC4)CC3[C@H]2[C@@H]1c1ccc(F)cc1)c1cc(C(F)(F)F)cc(C(F)(F)F)c1 (stereo in doubt; 18b) [FIRST ELUDED ISOMER] | 4810 nM
C[C@@H](O[C@H]1CN2C(=O)[C@H]3C[C@@H](NCc4ccccc4)C[C@H]3[C@H]2[C@@H]1c1ccc(F)cc1)c1cc(C(F)(F)F)cc(C(F)(F)F)c1 | 140 nM

Give me IC50 for each of these molecules, listed below.
1. C[C@@H](O[C@H]1CN2C(=O)[C@H]3C[C@H](N)C[C@H]3[C@H]2[C@@H]1c1ccc(F)cc1)c1cc(C(F)(F)F)cc(C(F)(F)F)c1
2. CC[C@]1(O)C[C@H]2[C@H]3[C@H](c4ccc(F)cc4)[C@@H](O[C@H](C)c4cc(C(F)(F)F)cc(C(F)(F)F)c4)CN3C(=O)[C@H]2C1
3. C[C@@H](O[C@H]1CN2C(=O)[C@H]3C[C@H](NCc4ccccc4)C[C@H]3[C@H]2[C@@H]1c1ccc(F)cc1)c1cc(C(F)(F)F)cc(C(F)(F)F)c1
4. C[C@@H](O[C@H]1CN2C(=O)CC[C@H]2[C@@H]1c1ccc(F)cc1)c1cc(C(F)(F)F)cc(C(F)(F)F)c1

590 nM
8420 nM
210 nM
1580 nM

====

assay: Metabolic stability in human microsomes assessed as compound remaining after 60 mins; assay type: ADME, Microsome; conditions: read-out: Stability
reported.endpoint: remaining at 1 h (%)
One number for each entry, in %.

Tell me the measured remaining at 1 h of "C[C@@H](O[C@H]1CN2C(=O)[C@H]3C[C@@](C)(O)C[C@H]3[C@H]2[C@@H]1c1ccc(F)cc1)c1cc(C(F)(F)F)cc(C(F)(F)F)c1" , please.
96

====

For each of the compounds below, state its IC50.
target: Substance-P receptor (Homo sapiens); assay: Displacement of [125I]substance P from human NK1 receptor expressed in CHO cells; type: cell-based
Sequence (P25103 whole entry): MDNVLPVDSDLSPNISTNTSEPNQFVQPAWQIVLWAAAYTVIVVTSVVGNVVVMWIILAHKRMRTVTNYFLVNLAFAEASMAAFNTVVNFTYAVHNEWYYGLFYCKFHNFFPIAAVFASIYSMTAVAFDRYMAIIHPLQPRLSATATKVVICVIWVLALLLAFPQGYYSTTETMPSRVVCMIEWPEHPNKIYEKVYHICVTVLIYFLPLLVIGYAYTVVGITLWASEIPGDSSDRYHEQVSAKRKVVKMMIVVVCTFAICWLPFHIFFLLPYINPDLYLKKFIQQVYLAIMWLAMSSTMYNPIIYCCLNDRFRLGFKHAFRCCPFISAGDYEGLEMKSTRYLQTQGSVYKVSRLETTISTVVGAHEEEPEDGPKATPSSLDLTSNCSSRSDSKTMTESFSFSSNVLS
Give bare numbers, in nM.

C[C@@H](O[C@H]1CN2C(=O)[C@H]3C[C@H](N)C[C@H]3[C@H]2[C@@H]1c1ccc(F)cc1)c1cc(C(F)(F)F)cc(C(F)(F)F)c1 | 0.11
C[C@@H](O[C@H]1CN2C(=O)C3CN(C4=CC(=O)CC4)CC3[C@H]2[C@@H]1c1ccc(F)cc1)c1cc(C(F)(F)F)cc(C(F)(F)F)c1 (stereo in doubt; 18b) [FIRST ELUDED ISOMER] | 0.09
C[C@@H](O[C@H]1CN2C(=O)[C@@H]3C[C@H](N)C[C@@H]3[C@H]2[C@@H]1c1ccc(F)cc1)c1cc(C(F)(F)F)cc(C(F)(F)F)c1 | 1.5
C[C@@H](O[C@H]1CN2C(=O)[C@@H]3C[C@@H](NCc4ccccc4)C[C@@H]3[C@H]2[C@@H]1c1ccc(F)cc1)c1cc(C(F)(F)F)cc(C(F)(F)F)c1 | 0.14
C[C@@H](O[C@H]1CN2C(=O)C3CN(C4=CC(=O)CC4)CC3[C@H]2[C@@H]1c1ccc(F)cc1)c1cc(C(F)(F)F)cc(C(F)(F)F)c1 (single isomer, unassigned) [FIRST ELUDED ISOMER] | 0.17
C[C@@H](O[C@H]1CN2C(=O)[C@H]3C[C@@H](O)C[C@H]3[C@H]2[C@@H]1c1ccc(F)cc1)c1cc(C(F)(F)F)cc(C(F)(F)F)c1 | 0.06

Could you now look at the following compound, please?
Tell me the measured IC50 of C[C@@H](O[C@H]1CN2C(=O)C3CNCC3[C@H]2[C@@H]1c1ccc(F)cc1)c1cc(C(F)(F)F)cc(C(F)(F)F)c1 (single isomer, unassigned) [FIRST ELUDED ISOMER] , please.
1.5

These data points were gathered from ChEMBL document CHEMBL1255526.
